Reported Vd values for a set of molecules
- Method notes: Volume of distribution at steady state in Han Wistar rat at 0.73 micromol/kg, iv by LC-MS/MS analysis
- Assay type: ADME, organism-based
- Run parameters: in vivo, dose 0.73 µmol/kg, read-out: Vdss
Only the number, expressed in L/kg, is required.

# Query smiles, Unit tag, Vd
records = [
    ("COc1cc(F)c(O[C@H]2CC[C@@](C)(C(=O)O)CC2)cc1C(=O)N[C@@H]1[C@H]2CC[C@H](C2)[C@@H]1C(=O)Nc1ccc(F)c(S(F)(F)(F)(F)F)c1", "L/kg", 2.3),
]

// field: Vd; key: COc1cc(F)c(O[C@H]2CC[C@@](C)(C(=O)O)CC2)cc1C(=O)N[C@H]1[C@@H]2CC[C@@H](C2)[C@H]1C(=O)Nc1ccc(F)c(S(F)(F)(F)(F)F)c1 ; value = 1.5
